Data provenance: PubChem BioAssay AID2060627

# Test system: 156681-154-R-J1-PDC complex spheroid viability
# assay info: Anticancer human tumor 156681-154-R-J1-PDC patient-derived melanoma cell line growth inhibition [CLK]; active = viability on the fitted dose curve at most 10% of control; inactive = the rest
# run parameters: second compound 1 µM; first compound 3.16 µM
# Description: A high-throughput screen of multi-cell type tumor spheroids was designed to identify active combinations of […] and targeted small molecules. Complex spheroids include a stromal component modeled by human endothelial cells (HUVEC) and fibroblasts modeled by human mesenchymal stem cells (MSCs). […] Compounds. […] If the clinical Cmax for an agent had not been determined, the highest concentration tested was 10 microM. […]
Choose the fitting class; nothing outside TRUE for active, FALSE for inactive is accepted.

// below: answered compounds
compound	label
C=CC(=O)N1CCN(c2nc(=O)n(-c3c(C)ccnc3C(C)C)c3nc(-c4c(O)cccc4F)c(F)cc23)C(C)C1 (stereo not given) + CN1CCN(c2cc(C(=O)Nc3cc4cc(-c5cnn(C)c5)ccc4cn3)ccn2)CC1	TRUE
CC(CO)NC(=O)c1cc(-c2ccc(Cl)cc2)nn(-c2cnn(C)c2)c1=O (stereo not given) + CNC(=O)c1ccc(Nc2nc(OC3CCCC3)c3c(-c4ccc5nc(C)oc5c4)c[nH]c3n2)c(OC)c1	FALSE
O=c1[nH]cc(F)c(=O)[nH]1 + CN1CCN(c2cc(C(=O)Nc3cc4cc(-c5cnn(C)c5)ccc4cn3)ccn2)CC1	TRUE
CC(Nc1ccc2c(c1)OCCn1cc(N3C(=O)OCC3C(F)F)nc1-2)C(N)=O (stereo not given) + CNC(=O)c1ccc(Nc2nc(OC3CCCC3)c3c(-c4ccc5nc(C)oc5c4)c[nH]c3n2)c(OC)c1	FALSE
COc1ccc([C@@H](O)c2cc(-c3ncnc4cc(N5CCOCC5)ccc34)c(F)cc2Cl)nn1 + CNC(=O)c1ccc(Nc2nc(OC3CCCC3)c3c(-c4ccc5nc(C)oc5c4)c[nH]c3n2)c(OC)c1	FALSE
COc1ccc([C@@H](O)c2cc(-c3ncnc4cc(N5CCOCC5)ccc34)c(F)cc2Cl)nn1 + CN1CCN(c2cc(C(=O)Nc3cc4cc(-c5cnn(C)c5)ccc4cn3)ccn2)CC1	TRUE
CC1(C)CCC(CN2CCN(c3ccc(C(=O)NS(=O)(=O)c4ccc(NCC5CCOCC5)c([N+](=O)[O-])c4)c(Oc4cnc5[nH]ccc5c4)c3)CC2)=C(c2ccc(Cl)cc2)C1 + CNC(=O)c1ccc(Nc2nc(OC3CCCC3)c3c(-c4ccc5nc(C)oc5c4)c[nH]c3n2)c(OC)c1	FALSE
COC1C=CCC(C)C(C)S(=O)(=O)NC(=O)c2ccc3c(c2)N(CC2CCC21)CC1(CCCc2cc(Cl)ccc21)CO3 (stereo not given) + CNC(=O)c1ccc(Nc2nc(OC3CCCC3)c3c(-c4ccc5nc(C)oc5c4)c[nH]c3n2)c(OC)c1	TRUE
CC1(C)CCC(CN2CCN(c3ccc(C(=O)NS(=O)(=O)c4ccc(NCC5CCOCC5)c([N+](=O)[O-])c4)c(Oc4cnc5[nH]ccc5c4)c3)CC2)=C(c2ccc(Cl)cc2)C1 + CN1CCN(c2cc(C(=O)Nc3cc4cc(-c5cnn(C)c5)ccc4cn3)ccn2)CC1	TRUE

Then there is this compound:
input: Please indicate how the test categorized O=c1[nH]cc(F)c(=O)[nH]1 + CNC(=O)c1ccc(Nc2nc(OC3CCCC3)c3c(-c4ccc5nc(C)oc5c4)c[nH]c3n2)c(OC)c1 .
output: FALSE

* * *

# Test system: 156681-154-R-J1-PDC complex spheroid viability
# assay info: Anticancer human tumor 156681-154-R-J1-PDC cell line growth inhibition [CLK]; active means viability on the fitted dose curve at most 10% of control; inactive means the rest;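 note: spheroids exposed to the agents for seven days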
# run parameters: second compound 10 µM; first compound 0.0316 µM
Choose the fitting class; nothing outside active, inactive is accepted.

molecule	target or test system	label
CC1(C)CCC(CN2CCN(c3ccc(C(=O)NS(=O)(=O)c4ccc(NCC5CCOCC5)c([N+](=O)[O-])c4)c(Oc4cnc5[nH]ccc5c4)c3)CC2)=C(c2ccc(Cl)cc2)C1 + CN1CCN(c2cc(C(=O)Nc3cc4cc(-c5cnn(C)c5)ccc4cn3)ccn2)CC1	156681-154-R-J1-PDC complex spheroid viability	active

input: Please indicate how the test categorized C=C(F)C(=O)N1CCN(c2nc(OCC3CCCN3C)nc3c2CCN(c2cccc4cccc(Cl)c24)C3)CC1CC#N (centres undefined) + CNC(=O)c1ccc(Nc2nc(OC3CCCC3)c3c(-c4ccc5nc(C)oc5c4)c[nH]c3n2)c(OC)c1 .
output: inactive

input: Please indicate how the test categorized C=CC(=O)N1CCN(c2nc(=O)n(-c3c(C)ccnc3C(C)C)c3nc(-c4c(O)cccc4F)c(F)cc23)C(C)C1 (centres undefined) + CNC(=O)c1ccc(Nc2nc(OC3CCCC3)c3c(-c4ccc5nc(C)oc5c4)c[nH]c3n2)c(OC)c1 .
output: inactive

input: Please indicate how the test categorized CC(=O)O[C@H]1C(=O)[C@@]2(C)[C@H]([C@H](OC(=O)c3ccccc3)[C@]3(O)C[C@H](OC(=O)[C@H](O)[C@@H](NC(=O)c4ccccc4)c4ccccc4)C(C)=C1C3(C)C)[C@]1(OC(C)=O)CO[C@@H]1C[C@@H]2O + CNC(=O)c1ccc(Nc2nc(OC3CCCC3)c3c(-c4ccc5nc(C)oc5c4)c[nH]c3n2)c(OC)c1 .
output: inactive

input: Please indicate how the test categorized COc1cccc2c1C(=O)c1c(O)c3c(c(O)c1C2=O)CC(O)(C(=O)CO)CC3OC1CC(N)C(O)C(C)O1 (centres undefined) + CNC(=O)c1ccc(Nc2nc(OC3CCCC3)c3c(-c4ccc5nc(C)oc5c4)c[nH]c3n2)c(OC)c1 .
output: inactive

input: Please indicate how the test categorized COC1C=CCC(C)C(C)S(=O)(=O)NC(=O)c2ccc3c(c2)N(CC2CCC21)CC1(CCCc2cc(Cl)ccc21)CO3 (centres undefined) + CNC(=O)c1ccc(Nc2nc(OC3CCCC3)c3c(-c4ccc5nc(C)oc5c4)c[nH]c3n2)c(OC)c1 .
output: inactive

input: Please indicate how the test categorized COc1cccc2c1C(=O)c1c(O)c3c(c(O)c1C2=O)CC(O)(C(=O)CO)CC3OC1CC(N)C(O)C(C)O1 (centres undefined) + CN1CCN(c2cc(C(=O)Nc3cc4cc(-c5cnn(C)c5)ccc4cn3)ccn2)CC1 .
output: active

input: Please indicate how the test categorized CCN1CCN(Cc2ccc(Nc3ncc(F)c(-c4cc(F)c5nc(C)n(C(C)C)c5c4)n3)nc2)CC1 + CNC(=O)c1ccc(Nc2nc(OC3CCCC3)c3c(-c4ccc5nc(C)oc5c4)c[nH]c3n2)c(OC)c1 .
output: inactive

input: Please indicate how the test categorized C#Cc1c(F)ccc2cc(O)cc(-c3ncc4c(N5CC6CCC(C5)N6)nc(OCC56CCCN5CC(F)C6)nc4c3F)c12 (centres undefined) + CNC(=O)c1ccc(Nc2nc(OC3CCCC3)c3c(-c4ccc5nc(C)oc5c4)c[nH]c3n2)c(OC)c1 .
output: inactive

* * *

# System: 156681-154-R-J1-PDC complex spheroid viability
# assay info: Anticancer human tumor 156681-154-R-J1-PDC cell line growth inhibition [CLK];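 note: spheroids exposed to the agents for seven days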
# run parameters: second compound 0.1 µM; first compound 0.3 µM; hits give low values
Binary call on viability, T/C with cut-off 20%: strictly below means T, and equality or higher means F.

compound	target or test system	label
CC(C)CC(NC(=O)C(Cc1ccccc1)NC(=O)c1cnccn1)B(O)O (stereo unspecified) + CN1CCN(c2cc(C(=O)Nc3cc4cc(-c5cnn(C)c5)ccc4cn3)ccn2)CC1	156681-154-R-J1-PDC complex spheroid viability	T

input: State whether 20% exceeds viability, T/C recorded for CC(C)CC(NC(=O)C(Cc1ccccc1)NC(=O)c1cnccn1)B(O)O (stereo unspecified) + CNC(=O)c1ccc(Nc2nc(OC3CCCC3)c3c(-c4ccc5nc(C)oc5c4)c[nH]c3n2)c(OC)c1 .
output: T

input: State whether 20% exceeds viability, T/C recorded for C=CC(=O)Nc1cc(Nc2nccc(-c3cn(C)c4ccccc34)n2)c(OC)cc1N(C)CCN(C)C + CNC(=O)c1ccc(Nc2nc(OC3CCCC3)c3c(-c4ccc5nc(C)oc5c4)c[nH]c3n2)c(OC)c1 .
output: F

input: State whether 20% exceeds viability, T/C recorded for NC(=O)C(=Cn1cnc(-c2cc(C(F)(F)F)cc(C(F)(F)F)c2)n1)c1cncnc1 + CN1CCN(c2cc(C(=O)Nc3cc4cc(-c5cnn(C)c5)ccc4cn3)ccn2)CC1 .
output: T

input: State whether 20% exceeds viability, T/C recorded for NC(=O)C(=Cn1cnc(-c2cc(C(F)(F)F)cc(C(F)(F)F)c2)n1)c1cncnc1 + CNC(=O)c1ccc(Nc2nc(OC3CCCC3)c3c(-c4ccc5nc(C)oc5c4)c[nH]c3n2)c(OC)c1 .
output: T

input: State whether 20% exceeds viability, T/C recorded for C=CC(=O)Nc1cc(Nc2nccc(-c3cn(C)c4ccccc34)n2)c(OC)cc1N(C)CCN(C)C + CN1CCN(c2cc(C(=O)Nc3cc4cc(-c5cnn(C)c5)ccc4cn3)ccn2)CC1 .
output: F
